- Test system: Trypanosoma cruzi
- Method summary: Trypanosoma cruzi phosphomannomutase and mannose-1-phosphate guanylyltransferase assay
- Format: functional
- Design: scale not given: direction of the effect not stated beside the values
- Measurement parameters: 10 µM
The following compounds are shown together with reported Percent Effect values.
Result type: Percent Effect (%)

O=C(C1=CCCC1)N1CCO[C@H]2[C@@H](Oc3ccccn3)CC[C@@H]21; 0.787
CC(C)c1nc(CCNC(=O)NCc2ccnc(N(C)C)c2)cs1; -0.103
Cc1occc1C(=O)Nc1ccnc(OC2CCOC2)c1 (stereo unspecified); 4.57
Cc1ccc(CC(=O)NCCCNS(C)(=O)=O)cc1; -2.56
CCn1ncnc1C(C)NC(=O)C1CCN(C(C)C)CC1 (stereo unspecified); 0.0978
O=C(C1CCOC1)N1C[C@H]2CN(Cc3nccs3)C[C@H]2C1 (stereo partly specified); -3.81

---

The following compounds are shown together with reported Percent Effect values.
- Study system: Proteasome subunit beta (Trypanosoma cruzi) (UniProt O96673)
- Sequence (O96673 as listed by the source): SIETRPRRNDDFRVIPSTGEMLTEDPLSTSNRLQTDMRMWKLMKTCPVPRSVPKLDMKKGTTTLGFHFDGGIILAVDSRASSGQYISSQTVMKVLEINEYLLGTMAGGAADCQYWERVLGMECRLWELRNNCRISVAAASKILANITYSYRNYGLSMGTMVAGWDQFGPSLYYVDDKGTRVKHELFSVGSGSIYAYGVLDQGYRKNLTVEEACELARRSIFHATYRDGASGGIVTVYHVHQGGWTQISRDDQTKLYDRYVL
- Method summary: Trypanosoma cruzi proteasome chymotrypsin-like activity (TcProtChymo) assay. Note: in the data most compounds retested in dose-response had high values.
- Type: functional
- Parameters: scale not given: direction of the effect not stated beside the values
- Measurement parameters: 9.37 µM
Result type: Percent Effect (%)

Cc1ccc(-c2cc(CNC(=O)N3CCOC(C)C3)on2)cc1 (stereo unspecified); 7.54
COc1ccc2c(c1)CC(NC(=O)NCc1cccs1)CO2 (stereo unspecified); 5.4
CN(C)C(=O)CC1CC2(CCNCC2)c2cc(F)ccc21 (stereo unspecified); 21
Cc1ccc(CN2CCOC3(CCCN(C(=O)c4ccco4)C3)C2)s1 (stereo unspecified); 17.6
COc1cccc(S(=O)(=O)CCN2CCC3(CC2)OCCO3)c1; 6.45
Cc1cnn(CCNCc2ccccc2Oc2cccnc2)c1; 23.3

---

- Study system: Proteasome subunit beta (Trypanosoma cruzi) (UniProt O96673)
- Method summary: Trypanosoma cruzi proteasome chymotrypsin-like activity (TcProtChymo) assay. Note: in the data most compounds retested in dose-response had high values.
- Assay type: functional
- Design: scale not given: direction of the effect not stated beside the values
- Measurement parameters: 9.37 µM
Result type: Percent Effect (%)

CNC(=O)C1CCN(C(=O)CCn2cccn2)CC1; -1.44
CN(CCn1cccn1)S(=O)(=O)N1CCCC1c1ccco1 (stereo not drawn); -3.05
O=C1CC(c2ccc(C(=O)O)cc2)c2ncn(-c3ccccc3)c2N1 (stereo not drawn); 19.2
Cc1ccc(C)n1-c1ccc(C(=O)NCCNc2ncccn2)cc1; 15
CCc1c(C(=O)N2CCN(c3ncccn3)CC2)cnn1C(C)(C)C; 13.3
O=C(CN1CCC(c2cccc(F)c2)C1)NCc1ccco1 (stereo not drawn); 14.4
CC(C)n1ccnc1C1CCCN(c2ccnc3ccccc23)C1 (stereo not drawn); 1.57
O=C(CN1CCC(C(=O)c2cc(F)ccc2F)CC1)NC1CCCC1; 8.53
CC(C)c1noc(CCC(=O)NC(C)c2nnc3n2CCCCC3)n1 (stereo not drawn); 2.83
O=C(COc1ccc(C(F)(F)F)cc1)NS(=O)(=O)c1cccnc1; 3.84
Cn1ccnc1-c1cccc(NC(=O)NCCCO)c1; 11.8
Cn1cccc1C(=O)N1CCN(Cc2ccncc2)c2ncccc2C1; 12.1
O=C(Cc1ccc2c(c1)CCCC2)NCCc1ccccn1; 16.2
Cc1csc(N2CCN(C(=O)Cc3ccc(C)s3)CC2)n1; 25.2
COc1ccc(F)c(CN2CCC3(CCC(=O)N(CC(N)=O)C3)CC2)c1; 12.4
Cn1ccc(CN2CCC(CCc3ccc(O)cc3)CC2)cc1=O; 1.89
Cc1ccc(C(=O)N2CCc3c(CNS(C)(=O)=O)cncc3C2)o1; 8.72
CCOCC(O)CN1CCN(C(=O)c2ccc(OC)cc2F)CC1 (stereo not drawn); 0.676
O=C(c1ccn(-c2ccccc2Cl)n1)N1CCSCC1; 3.69
CN1C(=O)CC(C(=O)O)C12CCN(Cc1ccc(F)cc1Cl)CC2 (stereo not drawn); 16
C=Cc1ccc(C(=O)N2CCCC(Nc3ccc(OC)cc3)C2)cc1 (stereo not drawn); 3.28
Cc1cccc(CNC2CCCc3c2cnn3C)c1 (stereo not drawn); 3.6
CCOCC1CN(C(=O)CS(C)(=O)=O)Cc2cnn(C)c21 (stereo not drawn); 4.27
CCn1cnnc1CNC(=O)c1cc(Cl)ccc1OC; 11.2
COc1cccc(C(=O)N2CCc3ncnc(C)c3CC2)c1; 10.4
Cn1ncc2c(=O)[nH]c(CN(Cc3ccco3)C3CCCC3)nc21; 14.7
COCCNc1ccc(CNC(=O)Nc2cn[nH]c2)cc1; 1.06
Cc1cc(CN2CCC(c3ccnn3CCO)CC2)no1; 7.45
Cc1nn(C)c(N2CCOCC2)c1CNC1CCN(C(C)(C)C)CC1; 13.5
CC(=O)N(Cc1ncc(C)o1)C1CCN(Cc2ccncc2Cl)C1 (stereo not drawn); 11.2
CC(C)NC(=O)N1CCN(CC2CC2)CC2(CC(=O)N(C)C2)C1 (stereo not drawn); 7.02
O=C(CC1CN(Cc2ccccc2)CCO1)NC1CCCC1 (stereo not drawn); 7.35
CC(C)c1nc(C2CCCN2CCCc2nc3ccccc3o2)no1 (stereo not drawn); -1.62
Cc1nc2ccccc2c(=O)n1CCC(=O)N1CCSCC1; 6.85
Cc1cc(C[C@@H]2COC[C@@H]2NC(=O)CN2CCCC2)on1; -4.61
CCN(Cc1ccco1)C(=O)c1cc(OC)c2c(c1)OCCO2; 9.88
COc1cccc(CN2CCN(C(=O)CN3CCOCC3)CC2)n1; 4.99
CC(=O)N1CCC(CN2CCN(Cc3nccn3C)C(C)C2)CC1 (stereo not drawn); 14.5
CN(Cc1cccc(F)c1)C(=O)CN1CCCC1CCc1ccccc1 (stereo not drawn); 2
O=C(CCCc1ncc(-c2ccccc2)o1)N1CCN(CCO)CC1; 14.2
O=C(O)c1nnn(-c2ccc(F)c(F)c2)c1-c1ccncc1; 20.6
CN(C)[C@@H]1CCN(c2ncccn2)[C@H]1Cc1ccccc1; 8.65
CCCNC(=O)c1sccc1N(C)S(=O)(=O)c1ccc(Cl)cc1; 13.3
Cc1cc(CN(C)C(=O)c2cc3c([nH]c2=O)CCCC3=O)no1; -5.57
Cn1cc(CCC(=O)N2CCN(Cc3ccncc3)CC2)cn1; 4.22
COc1ccccc1C1(C(=O)NCCN2CCOCC2)CCOCC1; 12.4
CCN(CC(=O)NC(C)C)S(=O)(=O)N1CCC(C)C1 (stereo not drawn); 5.24
Cn1cc(N2CCCC(NCc3cccc4c3OCCCO4)C2)cn1 (stereo not drawn); 0.721

# credit: ChEMBL document CHEMBL3988442
